As shown below, each of these compounds has a reported pIC50 value.
Biological target: Nitric oxide synthase, inducible (Mus musculus, UniProt P29477)
Sequence (P29477 whole entry): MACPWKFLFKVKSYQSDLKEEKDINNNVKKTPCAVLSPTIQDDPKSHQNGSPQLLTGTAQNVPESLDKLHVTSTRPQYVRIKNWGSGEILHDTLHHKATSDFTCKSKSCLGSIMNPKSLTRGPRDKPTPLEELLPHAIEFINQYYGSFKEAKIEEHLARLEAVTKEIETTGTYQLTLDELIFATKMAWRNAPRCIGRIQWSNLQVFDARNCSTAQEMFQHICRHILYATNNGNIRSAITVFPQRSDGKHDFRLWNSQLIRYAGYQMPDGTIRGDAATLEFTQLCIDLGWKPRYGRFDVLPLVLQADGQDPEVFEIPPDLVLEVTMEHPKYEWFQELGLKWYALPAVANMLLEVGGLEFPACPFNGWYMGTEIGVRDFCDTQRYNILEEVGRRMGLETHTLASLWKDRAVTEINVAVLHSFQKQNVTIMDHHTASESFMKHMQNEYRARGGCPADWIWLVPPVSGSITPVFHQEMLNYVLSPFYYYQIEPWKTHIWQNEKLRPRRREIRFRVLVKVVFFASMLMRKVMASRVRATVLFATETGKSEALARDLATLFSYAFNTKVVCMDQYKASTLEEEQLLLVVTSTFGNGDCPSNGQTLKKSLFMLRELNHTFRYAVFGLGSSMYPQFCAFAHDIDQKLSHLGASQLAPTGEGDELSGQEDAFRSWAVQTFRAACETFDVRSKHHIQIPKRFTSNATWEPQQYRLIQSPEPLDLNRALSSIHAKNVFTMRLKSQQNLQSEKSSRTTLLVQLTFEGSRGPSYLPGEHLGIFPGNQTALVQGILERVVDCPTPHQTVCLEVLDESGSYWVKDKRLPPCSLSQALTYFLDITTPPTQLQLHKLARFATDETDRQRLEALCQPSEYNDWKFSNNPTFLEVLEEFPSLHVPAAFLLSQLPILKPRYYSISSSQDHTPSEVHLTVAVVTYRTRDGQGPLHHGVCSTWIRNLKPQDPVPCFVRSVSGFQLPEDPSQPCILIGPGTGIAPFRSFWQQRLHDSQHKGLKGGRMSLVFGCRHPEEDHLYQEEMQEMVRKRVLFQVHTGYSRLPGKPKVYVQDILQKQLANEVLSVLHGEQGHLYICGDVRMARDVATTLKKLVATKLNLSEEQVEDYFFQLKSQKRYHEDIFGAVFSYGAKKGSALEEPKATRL
Experiment: Inhibition of inducible NOS mediated nitric oxide production in LPS-activated Kunming mouse macrophages
pIC50: −log10 of the molar value.
quantity: pIC50

mol smiles	value observed
Cc1ccc(NC(=O)[C@@H]2C[C@H](NC(=O)CCCCCNC(=N)N[N+](=O)[O-])CN2)cc1Cl	5.60
Cc1cccc(NC(=O)[C@@H]2C[C@H](NC(=O)CCCCCNC(=N)N[N+](=O)[O-])CN2)c1	3.92
N=C(NCCCCCC(=O)N[C@@H]1CN[C@H](C(=O)Nc2ccc(Br)cc2)C1)N[N+](=O)[O-]	4.13
Cc1ccccc1NC(=O)[C@@H]1C[C@H](NC(=O)CCCCCNC(=N)N[N+](=O)[O-])CN1	3.92
Cc1ccc(NC(=O)[C@@H]2C[C@H](NC(=O)CCCCCNC(=N)N[N+](=O)[O-])CN2)c(C)c1	3.92
N=C(NCCCCCC(=O)N[C@@H]1CN[C@H](C(=O)Nc2ccc(F)cc2)C1)N[N+](=O)[O-]	4.06
N=C(NCCCCCC(=O)N[C@@H]1CN[C@H](C(=O)Nc2ccc(Cl)cc2)C1)N[N+](=O)[O-]	4.10
COc1ccc(NC(=O)[C@@H]2C[C@H](NC(=O)CCCCCNC(=N)N[N+](=O)[O-])CN2)cc1	4.57

* * *

Target: Nitric oxide synthase, inducible (Mus musculus, UniProt P29477)
Assay: Inhibition of inducible NOS mediated nitric oxide production in LPS-activated Kunming mouse macrophages
quantity: log10 IC50 (log10 of the value in µM)

mol smiles	system	value observed
N=C(NCCC[C@H](N)C(=O)O)N[N+](=O)[O-]	Nitric oxide synthase, inducible (Mus musculus, UniProt P29477)	1.17
N=C(NCCCCCC(=O)N[C@@H]1CN[C@H](C(=O)Nc2ccc(F)c(F)c2)C1)N[N+](=O)[O-]	Nitric oxide synthase, inducible (Mus musculus, UniProt P29477)	0.43
N=C(NCCCCCC(=O)N[C@@H]1CN[C@H](C(=O)NC2CCCCC2)C1)N[N+](=O)[O-]	Nitric oxide synthase, inducible (Mus musculus, UniProt P29477)	0.87
N=C(NCCCCCC(=O)N[C@@H]1CN[C@H](C(=O)Nc2ccc([N+](=O)[O-])cc2)C1)N[N+](=O)[O-]	Nitric oxide synthase, inducible (Mus musculus, UniProt P29477)	1.40
N=C(NCCCCCC(=O)N[C@@H]1CN[C@H](C(=O)Nc2ccc(Cl)cc2Cl)C1)N[N+](=O)[O-]	Nitric oxide synthase, inducible (Mus musculus, UniProt P29477)	1.19
N=C(NCCCCCC(=O)N[C@@H]1CN[C@H](C(=O)Nc2cc(Cl)cc(Cl)c2)C1)N[N+](=O)[O-]	Nitric oxide synthase, inducible (Mus musculus, UniProt P29477)	1.94
N=C(NCCCCCC(=O)N[C@@H]1CN[C@H](C(=O)Nc2ccccc2)C1)N[N+](=O)[O-]	Nitric oxide synthase, inducible (Mus musculus, UniProt P29477)	0.37
N=C(NCCCCCC(=O)N[C@@H]1CN[C@H](C(=O)Nc2ccccc2F)C1)N[N+](=O)[O-]	Nitric oxide synthase, inducible (Mus musculus, UniProt P29477)	1.12
N=C(NCCCCCC(=O)N[C@@H]1CN[C@H](C(=O)Nc2ccc(F)c(F)c2F)C1)N[N+](=O)[O-]	Nitric oxide synthase, inducible (Mus musculus, UniProt P29477)	1.56
N=C(NCCCCCC(=O)N[C@@H]1CN[C@H](C(=O)Nc2cccc([N+](=O)[O-])c2)C1)N[N+](=O)[O-]	Nitric oxide synthase, inducible (Mus musculus, UniProt P29477)	1.66
N=C(NCCCCCC(=O)N[C@@H]1CN[C@H](C(=O)Nc2cc(Cl)ccc2Cl)C1)N[N+](=O)[O-]	Nitric oxide synthase, inducible (Mus musculus, UniProt P29477)	2.02
N=C(NCCCCCC(=O)N[C@@H]1CN[C@H](C(=O)Nc2ccccc2Cl)C1)N[N+](=O)[O-]	Nitric oxide synthase, inducible (Mus musculus, UniProt P29477)	2.03
CCOc1ccc(NC(=O)[C@@H]2C[C@H](NC(=O)CCCCCNC(=N)N[N+](=O)[O-])CN2)cc1	Nitric oxide synthase, inducible (Mus musculus, UniProt P29477)	2.21
N=C(NCCCCCC(=O)N[C@@H]1CN[C@H](C(=O)Nc2cccc(Cl)c2)C1)N[N+](=O)[O-]	Nitric oxide synthase, inducible (Mus musculus, UniProt P29477)	1.11
N=C(NCCCCCC(=O)N[C@@H]1CN[C@H](C(=O)Nc2ccc(F)cc2F)C1)N[N+](=O)[O-]	Nitric oxide synthase, inducible (Mus musculus, UniProt P29477)	2.14
Cc1ccc(NC(=O)[C@@H]2C[C@H](NC(=O)CCCCCNC(=N)N[N+](=O)[O-])CN2)cc1	Nitric oxide synthase, inducible (Mus musculus, UniProt P29477)	2.09
N=C(NCCCCCC(=O)N[C@@H]1CN[C@H](C(=O)NCc2ccccc2)C1)N[N+](=O)[O-]	Nitric oxide synthase, inducible (Mus musculus, UniProt P29477)	1.64
N=C(NCCCCCC(=O)N[C@@H]1CN[C@H](C(=O)Nc2cc(F)cc(F)c2)C1)N[N+](=O)[O-]	Nitric oxide synthase, inducible (Mus musculus, UniProt P29477)	1.07
